measurement.target: Caspase recruitment domain-containing protein 9 (Homo sapiens) + E3 ubiquitin-protein ligase TRIM62 (Homo sapiens) (UniProt Q9H257+Q9BVG3)
Sequence (Q9BVG3 whole entry, looked up, the tested form may be a part): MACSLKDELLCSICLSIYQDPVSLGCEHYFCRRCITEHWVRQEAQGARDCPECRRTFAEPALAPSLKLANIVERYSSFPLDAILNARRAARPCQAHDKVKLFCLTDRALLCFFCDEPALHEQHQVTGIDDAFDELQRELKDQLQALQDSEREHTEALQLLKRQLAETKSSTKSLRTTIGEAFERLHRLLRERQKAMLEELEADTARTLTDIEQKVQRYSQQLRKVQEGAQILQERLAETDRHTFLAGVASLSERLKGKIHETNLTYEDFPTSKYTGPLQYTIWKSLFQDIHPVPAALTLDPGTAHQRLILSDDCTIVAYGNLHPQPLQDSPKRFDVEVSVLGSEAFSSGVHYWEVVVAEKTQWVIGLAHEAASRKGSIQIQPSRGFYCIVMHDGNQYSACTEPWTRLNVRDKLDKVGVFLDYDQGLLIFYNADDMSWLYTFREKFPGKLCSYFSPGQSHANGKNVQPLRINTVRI
Sequence (Q9H257 whole entry, looked up, the tested form may be a part): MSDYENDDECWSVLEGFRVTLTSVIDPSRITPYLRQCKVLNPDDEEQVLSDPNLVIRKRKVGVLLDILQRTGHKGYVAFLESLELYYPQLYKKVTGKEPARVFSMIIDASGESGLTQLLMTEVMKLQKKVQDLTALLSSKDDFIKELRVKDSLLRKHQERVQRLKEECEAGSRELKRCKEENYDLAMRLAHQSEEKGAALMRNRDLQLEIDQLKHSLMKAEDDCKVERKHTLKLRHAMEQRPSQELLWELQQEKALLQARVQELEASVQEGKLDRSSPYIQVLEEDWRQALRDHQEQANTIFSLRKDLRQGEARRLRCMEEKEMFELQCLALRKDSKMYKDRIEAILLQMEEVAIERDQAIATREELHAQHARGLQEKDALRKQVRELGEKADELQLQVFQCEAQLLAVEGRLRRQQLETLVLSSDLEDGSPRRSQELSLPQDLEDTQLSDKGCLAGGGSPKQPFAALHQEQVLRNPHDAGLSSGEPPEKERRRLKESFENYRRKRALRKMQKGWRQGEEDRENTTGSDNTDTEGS
assay.method.text: CARD9/TRIM62 protein interaction inhibitors – cell lysate, HEK293FT lysates, Luminex bead readout, dose response (AID 1259338)
study.conditions: Luminex bead PPI, MFI
Active and inactive are the calls of the source.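 Rule for the calls: active = compounds lowering the signal with a fitted AC50 at or below a set concentration limit; inconclusive = flat curve with 30 to 70% inhibition, or a poor fit; inactive = the rest.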
measurement.name: AC50

molecule: O=C(NCC1CCCO1)c1cc(-c2ccco2)nc2ccccc12 (stereo unspecified)
measurement.name: AC50
result.value: > 160 µM (inactive)
//
molecule: COc1c(C(=O)O)csc1Br
measurement.name: AC50
result.value: 29.6 µM
//
molecule: Cc1cccc2nc(CSCc3ccco3)cn12
measurement.name: AC50
result.value: > 160 µM (inactive)

Batch: AC50 for all items listed.
1. Cc1ccc(C(=O)Nc2cnc(N3CCC(C(N)=O)(N4CCCCC4)CC3)c(C(=O)O)c2)cc1
2. O=S(=O)(c1ccc2nc(-c3ccco3)c(-c3ccco3)nc2c1)N1CCOCC1
3. COc1ccc(NC(=O)CN(C)C(=O)c2cc(-c3ccco3)nc3ccccc23)cc1
4. NC(=O)C1(N2CCCCC2)CCN(c2ccc(NC(=O)c3cccc(Cl)c3)cc2C(=O)O)CC1

Response:
1. 8.64 µM
2. > 160 µM (inactive)
3. 78.2 µM
4. 14.8 µM

Batch: AC50 for all items listed.
1. O=C(Nc1nc(-c2ccccn2)cs1)c1cccc(-n2cnnn2)c1
2. O=C(Nc1nc(-c2ccco2)c(-c2ccco2)s1)C1CCC1
3. C=CC(=O)N1CCCC2(CCN(CCN3CCCC3)C2=O)C1 (stereo unspecified)
4. O=[N+]([O-])c1cccc(-c2nnc3ccc4ccccc4n23)c1

Response:
77.9 µM
54.7 µM
1.53 µM
80.2 µM
